- Test Summary: AUC in mouse
- Format: ADME, organism-based
- Condition Summary: in vivo
Measurement Name: AUC (ng·h/mL)

In [3]: df
Out[3]:
                           substance_smiles  endpoint_unit  recorded_number
0  COc1cc(N2CCN(C)CC2)ccc1Nc1ncc2c(n1)N(C)c1ccccc1C(=O)N2CC(F)(F)F        ng·h/mL             1270

----------
# maps each entry to its pIC50
- Target Of Assay: Bromodomain-containing protein 4 (Homo sapiens, UniProt O60885)
- Test Summary: Inhibition of BRD4 bromodomain 1 (unknown origin) by AlphaScreen displacement assay
pIC50: −log10 of the molar value.
Measurement Name: pIC50

>>> df
                           substance_smiles                           target_of_assay  measurement_name  rel  recorded_number
0  CCN1C(=O)c2ccccc2N(C)c2nc(Nc3ccc(N4CCN(C)CC4)cc3OC)ncc21  Bromodomain-containing protein 4 (Homo sapiens, UniProt O60885)             pIC50    =             6.08
1  COc1cc(N2CCN(C)CC2)ccc1Nc1ncc2c(n1)N(C)c1ccccc1C(=O)N2  Bromodomain-containing protein 4 (Homo sapiens, UniProt O60885)             pIC50    <             5.00
2  COc1cc(NS(C)(=O)=O)ccc1Nc1ncc2c(n1)N(C)c1ccccc1C(=O)N2CC(F)(F)F  Bromodomain-containing protein 4 (Homo sapiens, UniProt O60885)             pIC50    <             5.00
3  COc1cc(N2CCN(C)CC2)ccc1Nc1ncc2c(n1)N(C)c1ccccc1C(=O)N2C(C)C  Bromodomain-containing protein 4 (Homo sapiens, UniProt O60885)             pIC50    =             5.92
4  COc1cc(C(=O)NC2CCN(C)CC2)ccc1Nc1ncc2c(n1)N(C)c1ccccc1C(=O)N2C(C)C  Bromodomain-containing protein 4 (Homo sapiens, UniProt O60885)             pIC50    =             5.62
5  COc1cc(N2CCN(C)CC2)ccc1Nc1ncc2c(n1)N(C)c1ccccc1C(=O)N2CC(F)(F)F  Bromodomain-containing protein 4 (Homo sapiens, UniProt O60885)             pIC50    <             5.00
6  CCN1C(=O)c2ccccc2N(C)c2nc(Nc3ccc(C(=O)NC4CCN(C)CC4)cc3OC)ncc21  Bromodomain-containing protein 4 (Homo sapiens, UniProt O60885)             pIC50    =             6.28
7  COc1cc(N2CCN(C)CC2)ccc1Nc1ncc2c(n1)N(C)c1ccccc1C(=O)N2C  Bromodomain-containing protein 4 (Homo sapiens, UniProt O60885)             pIC50    =             6.05
8  COc1cc(NS(C)(=O)=O)ccc1Nc1ncc2c(n1)N(C)c1ccccc1C(=O)N2C  Bromodomain-containing protein 4 (Homo sapiens, UniProt O60885)             pIC50    =             6.90

Ref: ChEMBL document CHEMBL4610122
